Notes on IC50 obtained with Pim2 kinase (Homo sapiens).
Sequence (Q9P1W9 whole entry): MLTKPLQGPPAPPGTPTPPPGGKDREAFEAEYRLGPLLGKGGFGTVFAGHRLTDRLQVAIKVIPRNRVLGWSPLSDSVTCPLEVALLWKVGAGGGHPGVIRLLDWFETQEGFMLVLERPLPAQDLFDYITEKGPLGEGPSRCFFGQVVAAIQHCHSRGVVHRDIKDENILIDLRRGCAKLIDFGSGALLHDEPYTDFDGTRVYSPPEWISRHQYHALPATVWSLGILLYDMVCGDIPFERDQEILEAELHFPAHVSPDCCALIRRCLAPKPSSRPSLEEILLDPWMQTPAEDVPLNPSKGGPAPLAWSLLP
EXPERIMENTAL ENDPOINT: IC50 (µM)

1. Fc1ccc(-c2cs/c(=N\c3ccccc3)n2-c2cccc(-n3c(-c4ccc(F)cc4)cs/c3=N\c3ccccc3)c2)cc1 [8b] ... 10.5
2. CC(=O)c1sc(Nc2cccc(Nc3nc(C)c(C(C)=O)s3)c2)nc1C [3b] ... 6.05

* * *

System: OVCAR-8
PROTOCOL: NCI 60 cell one-dose screening (SRB)
Format: cell-based
TEST CONTEXT: Homo sapiens; OVCAR-8, Ovarian Cancer; single dose 10 µM, 48 h; read-out: Percentage of cellular growth inhibition
Please use the following inhibition at 10 µM ranges when assigning a class: c1: < 8%; c2: ≥ 8% and < 20%; c3: ≥ 20%

1) c1ccc(-c2csc(Nc3cccc(Nc4nc(-c5ccccc5)cs4)c3)n2)cc1 ... c3
2) S=C(Nc1ccccc1)Nc1cccc(NC(=S)Nc2ccccc2)c1 ... c1
3) CCOC(=O)c1sc(Nc2cccc(Nc3nc(C)c(C(=O)OCC)s3)c2)nc1C ... c2
4) Clc1ccc(-c2csc(Nc3cccc(Nc4nc(-c5ccc(Cl)cc5)cs4)c3)n2)cc1 ... c1
5) Cc1csc(Nc2cccc(Nc3nc(C)cs3)c2)n1 ... c3
6) NC(=S)Nc1cccc(NC(N)=S)c1 ... c1
7) CC(=O)c1sc(Nc2cccc(Nc3nc(C)c(C(C)=O)s3)c2)nc1C ... c3
8) Fc1ccc(-c2cs/c(=N\c3ccccc3)n2-c2cccc(-n3c(-c4ccc(F)cc4)cs/c3=N\c3ccccc3)c2)cc1 ... c2
